target: Bfl-1 (Homo sapiens); construct: myc- Bfl-1 SPOT array & FP; made in house; assay: Fluorescence polarization direct binding; conditions: benchmark classification of peptides newly characterized in this study; read-out: Binder class, Bfl-1
Sequence (Q16548 with tags, fused parts or gaps): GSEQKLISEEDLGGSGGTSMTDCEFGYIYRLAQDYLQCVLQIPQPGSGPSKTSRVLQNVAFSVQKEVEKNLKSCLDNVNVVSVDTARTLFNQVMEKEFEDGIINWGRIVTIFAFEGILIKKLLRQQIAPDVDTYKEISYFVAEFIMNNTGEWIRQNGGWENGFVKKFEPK
pKd: −log10 of the molar value. No end group written: not given here.
# pKd per entry
assay_metric: pKd

substance | target | test_result
SYMVLAPVFGYLGDRYNRKYLMA-NH2 [SPNS1] | Bfl-1 (Homo sapiens) | > 6.00
FIQSLAAMLKQYADKLEFMHILT-NH2 [CASP3] | Bfl-1 (Homo sapiens) | > 6.00
ATKRETAATFLKKVAKEFGFQNNGFS-NH2 [NPLOC4] | Bfl-1 (Homo sapiens) | < 5.00
DARDYAVVLRKYADKIYSISMKH-NH2 [FOLH1] | Bfl-1 (Homo sapiens) | 5.00 to 6.00
GDSVLARMLRELGDSLRRPQLRL-NH2 [SLC19A1] | Bfl-1 (Homo sapiens) | > 6.00
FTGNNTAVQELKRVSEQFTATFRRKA-NH2 [TUBB4Q] | Bfl-1 (Homo sapiens) | < 5.00
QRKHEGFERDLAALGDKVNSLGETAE-NH2 [SPTAN1] | Bfl-1 (Homo sapiens) | < 5.00
AWGKFGGAFARYADEMKEIQERQ-NH2 [PURB] | Bfl-1 (Homo sapiens) | < 5.00
LMARPAVALHFQSIADGFKEAVRYVL-NH2 [SOS2] | Bfl-1 (Homo sapiens) | < 5.00
GSGAWGLLLRRVGDDVLVHLLAR-NH2 [TERT] | Bfl-1 (Homo sapiens) | > 6.00
IIHKLAMQLRHIGDNIDHRMVRE-NH2 [PXT1] | Bfl-1 (Homo sapiens) | > 6.00
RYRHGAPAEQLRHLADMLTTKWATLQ-NH2 [PLEKHH1] | Bfl-1 (Homo sapiens) | < 5.00

###

target: Bcl-2 (Homo sapiens, UniProt P10415, DEL53-91); construct: myc- Bcl-2 FP; made in house; experiment: Fluorescence polarization direct binding; conditions: FP direct binding; 10 nM FAM-labeled peptide, receptor titrated; 25°C, pH 7.8; fit of all replicate titrations; X+number in a cell = highest concentration (nM) measured with no binding detected, given here as >; SPNS1 fit to raw fluorescence; read-out: Best-fit KD, Bcl-2
Sequence (P10415 with tags, fused parts or gaps DEL53-91): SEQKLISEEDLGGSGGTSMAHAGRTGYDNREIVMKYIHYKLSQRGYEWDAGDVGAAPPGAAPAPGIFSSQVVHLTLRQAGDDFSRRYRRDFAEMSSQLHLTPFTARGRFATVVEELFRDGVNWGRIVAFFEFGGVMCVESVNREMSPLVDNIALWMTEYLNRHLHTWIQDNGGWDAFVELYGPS
No end group written: not given here.
assay_metric: log10 Kd (log10 of the value in nM)

substance | log10 Kd
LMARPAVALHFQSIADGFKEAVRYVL-NH2 [SOS2] | 3.52
GDSVLARMLRELGDSLRRPQLRL-NH2 [SLC19A1] | 2.37
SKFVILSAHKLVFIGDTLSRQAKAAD-NH2 [BCAR1] | 3.48
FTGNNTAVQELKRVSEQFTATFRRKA-NH2 [TUBB4Q] | 3.15
LRLFLAQRLRWLADSAPASRATA-NH2 [NBEAL2] | 1.20
RVEQMAIQIKEVGDRVNYIKRSL-NH2 [TRPM7] | 2.09
FIQSLAAMLKQYADKLEFMHILT-NH2 [CASP3] | 2.42
SYMVLAPVFGYLGDRYNRKYLMA-NH2 [SPNS1] | 1.45
APYYLSRNLKQQADIIFMPYNYL-NH2 [RTEL1] | 2.53

###

target: Bcl-xL (Homo sapiens); construct: myc-Bcl-xL SPOT array & FP; made in house; experiment: LUMIER full-length protein interaction; assay type: binding; details: LUMIER results for Bcl-xL; Z-score relative to Gaussian fit of the data; experiment 1, duplicate 2
# z-score 1.2 per entry

substance | z-score 1.2
TAP1 (MSILTIASAVLEFVGDGIYNNTMGHV) | -0.1665
DHX30 (PVESSWIAPELRLQSDDILPLGKDSG) | 0.08513
ACN9 (LQLHRVLPPDLKSLGDQYVKDEFRRH) | -0.8795
HEXDC (VLELHPGAQRLHIGCDEVYYLGEGEA) | -0.7792
FADD (APGEEDLCAAFNVICDNVGKDWRRLA) | -0.5034
DZIP3 (NGGLLEFHKSLQEIGDKNDHWFDIDP) | 0.5899

###

biological target: Bcl-xL (Homo sapiens, UniProt Q07817); construct: myc-Bcl-xL SPOT array & FP; made in house; assay: LUMIER full-length protein interaction; format: binding; details: LUMIER results for Bcl-xL; Z-score relative to Gaussian fit of the data; experiment 2, duplicate 1
Sequence (Q07817 with tags, fused parts or gaps): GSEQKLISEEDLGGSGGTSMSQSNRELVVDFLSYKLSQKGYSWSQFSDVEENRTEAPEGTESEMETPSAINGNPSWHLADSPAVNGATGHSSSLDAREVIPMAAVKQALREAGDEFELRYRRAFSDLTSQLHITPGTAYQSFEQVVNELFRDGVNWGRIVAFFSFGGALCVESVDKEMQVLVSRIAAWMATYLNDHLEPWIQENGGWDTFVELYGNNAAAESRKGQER

substance | z-score 2.1
DPF3 (SCMATVIHNPLKALGDQFYKEAIEHC) | 0.3964
TTC31 (DLSSTFVSLALRKVGDWPLSARREKG) | 0.1189
FBXL3 (CHGLRELALNYHLLSDELLLALSSEK) | 2.098
FOXI1 (PDKRLTLSQIYQYVADNFPFYNKSKA) | 1.203
STK11IP (DSLLWKLAGLLRESGDVVLSGCSTLS) | -0.2948
GBP6 (NDDTPWIARTLDNLADELTAILSAPA) | -0.4961
SIPA1 (TAGLRPGARLLRVCGQTLPSLRPEAA) | 3.9688
CTSL2 (SQGKHGFTMAMNAFGDMTNEEFRQMM) | 0.4619
PCNXL2 (LLDFFMVSILFSKLGDLLHKLQFVLT) | 0.72
P2RX7 (QCPIFRLGDIFRETGDNFSDVAIQGG) | 0.2039
IPO5 (SEIMHSFAKCIEVMGDGCLNNEHFEE) | 0.7008
PRDX4 (LDFTFVCPTEIIAFGDRLEEFRSINT) | -0.3545
ACN9 (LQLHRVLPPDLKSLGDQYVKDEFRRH) | 0.2924
SMPD2 (PYLSKHRADRMRRLGDFLNQESFDLA) | -0.2736
DSN1 (RAKASSLSEELKHFADGLETDGTLQK) | -0.01103
RBL1 (WTLFVYTKGNFRMIGDDLVNSYHLLL) | 2.327
FUT8 (KKLKNLEGNELQRHADEFLLDLGHHE) | 2.234
PPAT (RLRQLGVAKKFGVLSDNFKGKRIVLV) | -0.2564
NRN1L (DTIYQGFAECLIRLGDSMGRGGELET) | 0.3656
DHX30 (PVESSWIAPELRLQSDDILPLGKDSG) | 1.44
CYBB (APEEDFFSIHIRIVGDWTEGLFNACG) | 0.009756
DZIP3 (NGGLLEFHKSLQEIGDKNDHWFDIDP) | 1.027
TMEM214 (SFLSAHCASHLAWFGDSLTSLSQRLQ) | -0.2028

###

target: Bcl-w (Homo sapiens, UniProt Q92843, Q133R); construct: myc-Bcl-w SPOT array & FP; made in house; experiment: Fluorescence polarization direct binding; conditions: FP direct binding; 10 nM FAM-labeled peptide, receptor titrated; 25°C, pH 7.8; fit of all replicate titrations; X+number in a cell = highest concentration (nM) measured with no binding detected, given here as >; SPNS1 fit to raw fluorescence; read-out: Best-fit KD, Bcl-w
Sequence (Q92843 with tags, fused parts or gaps Q133R): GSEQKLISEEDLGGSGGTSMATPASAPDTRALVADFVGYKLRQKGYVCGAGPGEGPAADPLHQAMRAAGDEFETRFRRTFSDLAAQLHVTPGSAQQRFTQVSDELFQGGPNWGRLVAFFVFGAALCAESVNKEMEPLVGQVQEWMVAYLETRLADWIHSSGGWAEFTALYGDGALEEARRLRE
No end group written: not given here.
assay_metric: Kd

substance | target | assay_metric | test_result
KREKLVEILRNIGDERTMVFVET-NH2 [DDX4] | Bcl-w (Homo sapiens, UniProt Q92843, Q133R) | Kd | > 4350 nM
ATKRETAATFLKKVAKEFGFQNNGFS-NH2 [NPLOC4] | Bcl-w (Homo sapiens, UniProt Q92843, Q133R) | Kd | > 4500 nM
AWGKFGGAFARYADEMKEIQERQ-NH2 [PURB] | Bcl-w (Homo sapiens, UniProt Q92843, Q133R) | Kd | > 1800 nM

###

target: Mcl-1 (Homo sapiens, UniProt Q07820); construct: myc-Mcl-1 SPOT array & FP; made in house; assay: LUMIER full-length protein interaction; assay type: binding; conditions: LUMIER results for Mcl-1; Z-score relative to Gaussian fit of the data; experiment 2, duplicate 1
Sequence (Q07820 with tags, fused parts or gaps): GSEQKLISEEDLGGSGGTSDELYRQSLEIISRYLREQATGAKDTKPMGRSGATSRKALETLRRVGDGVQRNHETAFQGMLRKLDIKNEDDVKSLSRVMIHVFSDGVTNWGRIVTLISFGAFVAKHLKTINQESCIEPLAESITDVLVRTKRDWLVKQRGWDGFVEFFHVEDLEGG
# z-score 2.1 per entry

substance | target | z-score 2.1
PRCP (DDMFEPHSWNLKELSDDCFQQWGVRP) | Mcl-1 (Homo sapiens, UniProt Q07820) | 0.7051
PPAT (RLRQLGVAKKFGVLSDNFKGKRIVLV) | Mcl-1 (Homo sapiens, UniProt Q07820) | -0.6136
CTSL2 (SQGKHGFTMAMNAFGDMTNEEFRQMM) | Mcl-1 (Homo sapiens, UniProt Q07820) | 0.02916
FBXL3 (CHGLRELALNYHLLSDELLLALSSEK) | Mcl-1 (Homo sapiens, UniProt Q07820) | -0.4574
STK11IP (DSLLWKLAGLLRESGDVVLSGCSTLS) | Mcl-1 (Homo sapiens, UniProt Q07820) | -0.9757
WDR60 (GGRVKLVHSALIQLGDSLSHKGNEFW) | Mcl-1 (Homo sapiens, UniProt Q07820) | 0.4209
IPO5 (SEIMHSFAKCIEVMGDGCLNNEHFEE) | Mcl-1 (Homo sapiens, UniProt Q07820) | 1.802
CYP2A6 (MPYMEAVIHEIQRFGDVIPMSLARRV) | Mcl-1 (Homo sapiens, UniProt Q07820) | -0.8736
CCDC57 (QAGPVSSGLALRKLGDRVQLLNLLVT) | Mcl-1 (Homo sapiens, UniProt Q07820) | 1.282
SMPD2 (PYLSKHRADRMRRLGDFLNQESFDLA) | Mcl-1 (Homo sapiens, UniProt Q07820) | -0.5316
TAP1 (MSILTIASAVLEFVGDGIYNNTMGHV) | Mcl-1 (Homo sapiens, UniProt Q07820) | 0.2302
ZNF295 (ERLKGQLCDVLLIVGDQKFRAHKNVL) | Mcl-1 (Homo sapiens, UniProt Q07820) | -0.9697
SGCA (LFWTPLLVVLLAGLGDTEAQQTTLHP) | Mcl-1 (Homo sapiens, UniProt Q07820) | 0.04852
CASP8 (PFKKMDFSRNLYDIGEQLDSEDLASL) | Mcl-1 (Homo sapiens, UniProt Q07820) | -0.06643
